# SYSTEM_NAME: UniProt:O14684
# ASSAY_EXPLANATION: A549 cell-based assay (PGE2 formation, IL-1β stimulated, 50% human serum)
# PROTOCOL_CONDITIONS: Table C comparison of selected benzimidazoles, A549 cells, read-out: Cell IC50
In this section we review reported IC50 values for a set of molecules.

{"columns": ["MOLECULE", "SYSTEM_NAME", "TEST_READOUT", "READING"],
 "data": [
  ["Cn1c(Nc2c(Cl)ccc(CNC(=O)C(C)(C)C)c2Cl)nc2cc(C(=O)N[C@H]3CC[C@H](C(F)(F)F)CC3)c(OCC(F)F)cc21 [drawing 46]", "UniProt:O14684", "IC50", "< 1 nM"],
  ["Cn1c(Nc2c(Cl)ccc(CNC(=O)C(C)(C)C)c2Cl)nc2cc(C(=O)Nc3ccc(Br)cc3)c(OCC(F)F)cc21 [drawing 44]", "UniProt:O14684", "IC50", "< 1 nM"]
]}

--- query ---
I am curious: what IC50 value has been reported for Cn1c(Nc2cc(CNC(=O)C(C)(C)C)ccc2Cl)nc2cc(C(=O)NCC3CC3)c(OCC(F)F)cc21 [[drawing 49] of PCT/EP2010/052799, reference compound] ?
> 200 nM

---

# SYSTEM_NAME: mPGES-1 (Homo sapiens (Human), UniProt O14684)
# Sequence (O14684 whole entry): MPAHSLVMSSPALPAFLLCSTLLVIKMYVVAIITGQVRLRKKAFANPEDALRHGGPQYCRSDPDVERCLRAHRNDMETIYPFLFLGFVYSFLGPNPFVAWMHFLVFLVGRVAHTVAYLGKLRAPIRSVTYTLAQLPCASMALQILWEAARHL
# ASSAY_EXPLANATION: A549 cell-based assay (PGE2 formation, IL-1β stimulated, 50% human serum)
# PROTOCOL_CONDITIONS: A549 cells, IL-1β 5 ng/ml, read-out: mPGES-1 inhibitory effect in the cell assay, IC50
# Procedure: Although the enzymatic assay is a high throughput assay the disadvantage is that it uses a recombinant protein which is not in its natural environment. Accordingly a cellular assay was established in which a cell line of human origin (A549) expressing the mPGES-1 protein was used. […] Concentrations of PGE2 in the cell free medium (10 μl) were measured using a commercially available HTRF kit from Cisbio (as described above). […]
pIC50: −log10 of the molar value.
Reported values of pIC50 for individual entries

Record excerpt, results attached:
{"columns": ["MOLECULE", "pIC50"],
 "data": [
  ["Cn1c(Nc2c(Cl)ccc(CNC(=O)C(C)(C)C)c2Cl)nc2cc(C(=O)Nc3ccc(F)c(Cl)c3)c(OCC(F)F)cc21 [Example 29]", "> 9.00"],
  ["Cn1c(Nc2c(Cl)ccc(CNC(=O)C(C)(C)C)c2Cl)nc2cc(C(=O)NCCc3ccccc3)c(OCC(F)F)cc21 [Example 57]", "> 9.00"],
  ["Cn1c(Nc2c(Cl)ccc(CNC(=O)C(C)(C)C)c2Cl)nc2cc(C(=O)NCCC3CC3)c(OCC(F)F)cc21 [Example 51]", "> 9.00"],
  ["Cn1c(Nc2c(Cl)ccc(CNC(=O)C(C)(C)C)c2Cl)nc2cc(C(=O)N[C@H]3CC[C@H](C(F)(F)F)CC3)c(OCC(F)F)cc21 [Example 1]", "> 9.00"],
  ["Cn1c(Nc2c(Cl)ccc(CNC(=O)C(C)(F)F)c2Cl)nc2cc(C(=O)Nc3ccc(F)c(Cl)c3)c(OCC(F)F)cc21 [Example 162]", "> 9.00"]
]}

What value of pIC50 has been reported for the following molecule? Cn1c(Nc2c(Cl)ccc(CNC(=O)c3sccc3Cl)c2Cl)nc2cc(C(=O)Nc3ccc(F)c(Cl)c3)c(OCC(F)F)cc21 [Example 168]
> 9.00

---

pIC50 overview
# SYSTEM_NAME: mPGES-1 (Homo sapiens (Human))
# ASSAY_EXPLANATION: A549 cell-based assay (PGE2 formation, IL-1β stimulated, 50% human serum)
# PROTOCOL_CONDITIONS: A549 cells, IL-1β 5 ng/ml, read-out: mPGES-1 inhibitory effect in the cell assay, IC50
Please note pIC50 is a logarithmic value: minus log10 of concentration in mol/L. Answer with that number alone.

{"columns": ["SMILES_STR", "SYSTEM_NAME", "pIC50"],
 "data": [
  ["Cn1c(Nc2c(Cl)ccc(CNC(=O)C(C)(C)C)c2Cl)nc2cc(C(=O)NCC3CC3)c(OCC(F)F)cc21", "mPGES-1 (Homo sapiens (Human))", 9.00]
]}

Now examine the next entry.
What measured pIC50 is associated with "Cn1c(Nc2c(Cl)ccc(CNC(=O)C3(C)CC3)c2Cl)nc2cc(C(=O)Nc3ccc(F)c(Cl)c3)c(OCC(F)F)cc21" on mPGES-1 (Homo sapiens (Human))?
9.00

---

# SYSTEM_NAME: mPGES-1 (Homo sapiens (Human))
# ASSAY_EXPLANATION: A549 cell-based assay (PGE2 formation, IL-1β stimulated, 50% human serum)
# PROTOCOL_CONDITIONS: A549 cells, IL-1β 5 ng/ml, read-out: mPGES-1 inhibitory effect in the cell assay, IC50
TEST_READOUT: IC50 (nM)
Write the answer as a number in nM, unit excluded.

Here are 5 compounds together with their reported answers.
{"columns": ["COMPOUND", "IC50 / nM"],
 "data": [
  ["Cn1c(Nc2c(Cl)ccc(CNC(=O)CC3CC3)c2Cl)nc2cc(C(=O)NCC(F)(F)F)c(OCC(F)F)cc21", 68],
  ["CC(C)(C)C(=O)NCc1ccc(Cl)c(Nc2nc3cc(C(=O)N[C@H]4CC[C@H](C(F)(F)F)CC4)c(OCC(F)F)cc3[nH]2)c1Cl", 3],
  ["Cn1c(Nc2c(Cl)ccc(CNC(=O)C(O)C(F)(F)F)c2Cl)nc2cc(C(=O)NCC(F)(F)F)c(OCC(F)F)cc21 (stereo not shown)", 14],
  ["Cn1c(Nc2c(Cl)ccc(CNC(=O)CC#N)c2Cl)nc2cc(C(=O)NCC(F)(F)F)c(OCC(F)F)cc21", 19],
  ["Cn1c(Nc2c(Cl)ccc(CNC(=O)OC(C)(C)C)c2Cl)nc2cc(C(=O)Nc3ccc(F)c(Cl)c3)c(OCC(F)F)cc21", 11]
]}

May I ask what IC50 has been recorded for "Cn1c(Nc2c(Cl)ccc(CNC(=O)C(C)(C)CO)c2Cl)nc2cc(C(=O)NCC(F)(F)F)c(OCC(F)F)cc21" ?
72

---

Reported pIC50 by item:
# SYSTEM_NAME: mPGES-1 (Homo sapiens (Human), UniProt O14684)
# ASSAY_EXPLANATION: A549 cell-based assay (PGE2 formation, IL-1β stimulated, 50% human serum)
# PROTOCOL_CONDITIONS: A549 cells, IL-1β 5 ng/ml, read-out: mPGES-1 inhibitory effect in the cell assay, IC50
Interpret pIC50 as the negative base-10 log of the concentration measured in mol/L.

{"columns": ["MOLECULE", "pIC50"],
 "data": [
  ["Cc1ccc(CNC(=O)C(C)(C)C)c(C)c1Nc1nc2cc(C(=O)Nc3ccc(F)c(Cl)c3)c(OCC(F)F)cc2n1C [Example 71]", 7.80],
  ["Cn1c(Nc2c(F)ccc(CNC(=O)C(C)(C)C)c2F)nc2cc(C(=O)Nc3ccc(F)c(Cl)c3)c(OCC(F)F)cc21 [Example 26]", 7.96]
]}

// switching to the query molecule
Need pIC50 of CCC(=O)NCc1ccc(Cl)c(Nc2nc3cc(C(=O)NCC(F)(F)F)c(OCC(F)F)cc3n2C)c1Cl [Example 111] , thanks.
8.15

---

# SYSTEM_NAME: mPGES-1 (Homo sapiens (Human), UniProt O14684)
# ASSAY_EXPLANATION: mPGES-1 enzyme assay (HTRF detection of PGE2)
# Format: biochemical
# PROTOCOL_CONDITIONS: recombinant human mPGES-1 microsomes, PGH2 2 μM; read-out: mPGES-1 inhibitory effect in the enzyme assay, IC50
Reported IC50 by item:
Param answer (str): number followed by unit.

The cases that follow already have their IC50 on record.
{"columns": ["SMILES_STR", "SYSTEM_NAME", "IC50"],
 "data": [
  ["Cn1c(Nc2c(Cl)ccc(CNC(=O)C(C)(C)C)c2Cl)nc2cc(C(=O)Nc3cccc(C(F)(F)F)n3)c(OCC(F)F)cc21", "mPGES-1 (Homo sapiens (Human), UniProt O14684)", "4 nM"],
  ["Cn1c(Nc2c(Cl)ccc(CNC(=O)C(C)(C)C)c2Cl)nc2cc(C(=O)N[C@H]3CC[C@H](C(F)(F)F)CC3)c(F)cc21", "mPGES-1 (Homo sapiens (Human), UniProt O14684)", "4 nM"],
  ["Cn1c(Nc2c(Cl)ccc(CNC(=O)C(C)(C)C)c2Cl)nc2cc(C(=O)NC3CCC3)c(OCC(F)F)cc21", "mPGES-1 (Homo sapiens (Human), UniProt O14684)", "3 nM"]
]}

In the following, a different molecule is considered.
Notebook entry, mPGES-1 (Homo sapiens (Human), UniProt O14684) assay: IC50 of "Cn1c(Nc2c(Cl)ccc(CNC(=O)C(C)(C)C)c2Cl)nc2cc(C(=O)N[C@H]3CC[C@H](C(F)(F)F)CC3)c(OCC(F)F)cc21" = ?
2 nM
